Tested on: 786-0 renal
Experiment: NCI tumour cell line growth inhibition, 48 h
Records here are stratified by TGI; strata: low class (below 20 µM), middle class (20 µM to below 40 µM), high class (40 µM or more)

Sample answers from the record:
{"columns": ["Molecule", "Subject of test", "Class"],
 "data": [
  ["Cn1c(N=[N+]=[N-])cc(=O)n(C)c1=O", "786-0 renal", "high class"],
  ["Cc1cc([N+](=O)[O-])ccc1NS(=O)(=O)c1cc(Cl)ccc1Cl", "786-0 renal", "middle class"],
  ["CC(C)(O)[C@@H]1CC[C@@]2(C)CCC[C@H](O)[C@H]2C1", "786-0 renal", "high class"],
  ["CCOC(=O)c1cc2c(cn1)[nH]c1cccc(N)c12", "786-0 renal", "high class"],
  ["S=c1nc2sc3c(c2c(Nc2ccc(Br)cc2)[nH]1)CCN(N1CCc2c(sc4nc(=S)[nH]c(Nc5ccc(Br)cc5)c24)C1)C3", "786-0 renal", "low class"],
  ["CC(C)=CCCC1(Sc2ccccc2)C(=O)OCC1C=C(C)C (stereo not given)", "786-0 renal", "high class"]
]}

For the record COc1ccc(CCNC(=O)CCCCCO)cc1OC , report the class its TGI corresponds to.
high class

For the record COc1cc2c(cc1OC(=O)c1cc3ccccc3[nH]1)N=C[C@@H]1CCCN1C2=O , report the class its TGI corresponds to.
low class

====

System: MALME-3M melanoma
Assay: NCI tumour cell line growth inhibition, 48 h
Quantity measured: log10 of TGI (log10 of the value in µM)
Annotation: log10 of TGI, µM basis.

Answered examples (2):
{"columns": ["Compound", "Quantity measured", "Val"],
 "data": [
  ["Cc1cc(C)c2c(=N)c3ccccc3n(CCCCCCn3c4ccccc4c(=N)c4c(C)cc(C)nc43)c2n1", "log10 of TGI", 0.43],
  ["CCN(CC)CCCC(C)Nc1c2ccc(Cl)cc2nc2cc(OC)c(OC)cc12 (stereo not given)", "log10 of TGI", 0.55]
]}

Please report log10 of TGI for the following compound: COc1ccc(SC2c3ccc(C)cc3Oc3nc(N)c(C#N)c(N)c32)cc1 (stereo not given)
0.50

Please report log10 of TGI for the following compound: COc1cc2c(cc1OC)-c1ccc3cc4c(cc3c1N(CCN(C)C)C2)OCO4
0.98

Please report log10 of TGI for the following compound: Cn1cc(-c2nc(-c3c[nH]c4ccncc34)cs2)c2cc(F)ccc21
0.49

Please report log10 of TGI for the following compound: CCn1c2ccc(C(=O)CCCN(C)C)cc2c2cc(C(=O)CCCN(C)C)ccc21
1.04

Please report log10 of TGI for the following compound: Cc1ccc(C(=O)/C(=C\c2ccc([N+](=O)[O-])cc2)S(=O)Cc2ccc(F)cc2)cc1 (stereo not given)
0.52

Please report log10 of TGI for the following compound: COc1ccc2nc3cc([N+](=O)[O-])ccc3c(NCCCN(CCO)CCO)c2c1
0.72

Please report log10 of TGI for the following compound: COc1cc(-c2csc(NC(=O)Nc3cc(C(F)(F)F)cc(C(F)(F)F)c3)n2)cc(OC)c1OC
0.86

Please report log10 of TGI for the following compound: COc1cc2c(cc1OC(=O)c1cc3ccccc3[nH]1)N=C[C@@H]1CCCN1C2=O
0.35

Please report log10 of TGI for the following compound: O=C(Cn1c(=O)oc2ccc(C(=O)c3ccccc3Cl)cc21)c1ccc([N+](=O)[O-])cc1
1.84

====

System: HS 578T breast
Experiment: NCI tumour cell line growth inhibition, 48 h; in the data active = GI50 below about 0.43 µM; inactive = the rest
Choose one outcome from this list and give only that: active, inactive

Sample answers from the record:
{"columns": ["Compound", "Class"],
 "data": [
  ["O=C(NCCN1CCC(O)CC1)c1cc2c(o1)C(=O)c1ccccc1C2=O", "active"],
  ["c1ccc(Nn2c(CCCCCCCCc3nnc(COc4ccccc4)n3Nc3ccccc3)nnc2COc2ccccc2)cc1", "inactive"],
  ["COc1ccc(C2=Nc3c/c(=C\\c4c(O)[nH]c5ccc(Cl)cc45)ccc3=N2)cc1", "inactive"],
  ["COc1ccc2c(c1)c1nc3cc(C)c(C)cc3nc1n2CCN(C)C", "inactive"],
  ["O=C1C(Cl)=C(Nc2cccc(O)c2)C(=O)N1Cc1ccc(Cl)cc1", "inactive"],
  ["Nc1nc2ccc3[nH]ncc3c2c2c1CCCC2", "inactive"]
]}

// return assay outcome for CCN(CC)CCCC(C)Nc1c2ccc(Cl)cc2nc2cc(OC)c(OC)cc12 (stereo unspecified)
inactive

// return assay outcome for COc1ccc([I+]c2ccccc2)cc1
inactive

// return assay outcome for Oc1ccc2ccccc2c1C1NN=C(c2ccccc2)S1 (stereo unspecified)
inactive

// return assay outcome for CC(C)[NH-].CC(C)[NH-].O.O.[Cl][Pt+2][Cl]
inactive

// return assay outcome for COc1ccc2c3c(c4ccccc4cc13)C(=O)N(CCN(C)CCN)C2=O
inactive

====

Below, each entry is listed alongside its reported TGI.
System: M14 melanoma
Test: NCI tumour cell line growth inhibition, 48 h

{"columns": ["Compound", "TGI"],
 "data": [
  ["O=C1C(Cl)=C(Nc2cccc(O)c2)C(=O)N1Cc1ccc(Cl)cc1", "23.2 µM"],
  ["CNC(=O)c1ccccc1[S+]1c2cccc3cccc(c23)C(=O)N1C (centres undefined)", "> 100 µM"],
  ["CN(C)C(=S)/N=c1\\ss/c(=N\\C(=S)N(C)C)n1-c1ccc(Cl)cc1", "> 100 µM"],
  ["CCCC(=O)Nc1cc(/C=C/C(=O)N2CC(CCl)c3c2cc([N+](=O)[O-])c2ccccc32)n(C)c1 (centres undefined)", "> 100 µM"],
  ["N#CCOc1cccc(C2(N3CC=CCC3)CCCCC2)c1", "> 100 µM"]
]}

Please report TGI for the following compound: Cc1nc2c(Cl)cc(Cl)cc2c(Cl)c1CCCl
> 100 µM

Please report TGI for the following compound: O=C(O)CN(CC(=O)O)Cc1ccn(-c2cccc(-n3ccc(CN(CC(=O)O)CC(=O)O)n3)n2)n1
> 100 µM

Please report TGI for the following compound: CCO/C=C1\N=C(C(Cl)c2ccccc2)OC1=O (centres undefined)
> 100 µM

Please report TGI for the following compound: CC(=O)Nc1ccc(-c2nnc(SCC(=O)Nc3cccc([N+](=O)[O-])c3)o2)cc1
29.7 µM

====

Below, each entry is listed alongside its reported GI50.
Tested on: UACC-62 melanoma
Assay: NCI tumour cell line growth inhibition, 48 h

{"columns": ["Compound", "GI50"],
 "data": [
  ["C[C@]1(C(=O)O)N[C@H](C(=O)O)CS1", "> 1000 µM"],
  ["COc1ccc(SC2c3ccc(C)cc3Oc3nc(N)c(C#N)c(N)c32)cc1 (configuration not stated)", "1.6 µM"],
  ["O=C(O)c1ccc2c3c(ncnc13)-c1ccccc1C2=O", "2.44 µM"],
  ["CCN(CC)CCCC(C)Nc1c2ccc(Cl)cc2nc2cc(OC)c(OC)cc12 (configuration not stated)", "2.14 µM"],
  ["O=c1oc(-c2ccccc2)cc2cccc(O)c12", "24.5 µM"]
]}

Please report GI50 for the following compound: COc1cc(-c2csc(NC(=O)Nc3cc(C(F)(F)F)cc(C(F)(F)F)c3)n2)cc(OC)c1OC
1.59 µM

Please report GI50 for the following compound: COc1ccc(-c2nn(-c3cccc(Cl)c3)cc2-c2c(C#N)c(=O)n3[nH]c(-c4ccc(C)cc4)nc3c2C#N)cc1
2.54 µM

====

Test system: OVCAR-5 ovarian
Experiment: NCI tumour cell line growth inhibition, 48 h
Below, each entry is listed alongside its reported TGI.
Numbers only; they are read as µM.

Answered examples (2):
{"columns": ["Molecule", "U", "Val"],
 "data": [
  ["CCCCCCCCC(O)C#CC(N)=O (stereo not given)", "µM", 43.9],
  ["COC12OC3CC4(C)C(=CC3OC(OC(C)C1O)C2O)CCC1C4CCC2(C)C(c3ccc(=O)oc3)CCC12O (stereo not given)", "µM", 0.00327]
]}

Please report TGI for the following molecule: CN(C)CCNC(=O)c1cccc2[nH]c(-c3ccncc3)nc12
34.1

Please report TGI for the following molecule: Cc1oncc1NC1=CC(=O)C(=O)c2ccccc21
26.5

====

Test system: SNB-19 CNS
Experiment: NCI tumour cell line growth inhibition, 48 h
Where a SMILES comes first, the peptide text is derived from it. [ ]: non-standard residue; d: D form. pGlu = O=C1CC[CH](C(=O)O)N1
Quantity measured: TGI

Answered examples (6):
{"columns": ["Compound", "TGI"],
 "data": [
  ["CC(NC(=O)C(Cc1cnc[nH]1)NC(=O)C1CCC(=O)N1)C(N)=O (stereo not drawn) ([pGlu]-His-Ala-NH2; configuration not given here)", "> 100 µM"],
  ["O=c1cc(-c2ccccc2)nc(/C=C(\\O)c2ccncc2)n1-c1ccccc1", "> 100 µM"],
  ["CCCCCC(O)(CCCCC)CCCCCCCCC1=C(O)c2ccccc2C(=O)C1=O", "24.9 µM"],
  ["O=c1nc(NC(c2ccccc2)(c2ccccc2)c2ccccc2)ccn1CCO", "> 100 µM"],
  ["CN1CCC(C(=O)Nc2n[nH]c3nc(-c4ccc(O)cc4)c(Br)cc23)CC1", "> 25 µM"],
  ["O=C1c2ccccc2-c2nnc(-c3ccc(Cl)cc3)cc21", "> 10 µM"]
]}

Please report TGI for the following compound: CN(C)CCNC(=O)c1cccc2[nH]c(-c3ccncc3)nc12
> 63.2 µM

Please report TGI for the following compound: C[C@]1(C(=O)O)N[C@H](C(=O)O)CS1
> 1000 µM
